Hey, just so you know, these numbers are from ChEMBL document CHEMBL4513216.

# INHIBITION per entry
Tested on: Plasmodium berghei
experimental-protocol: Screen against P. berghei liver stage (PbLuc), transformed with Luciferase, at 10uM
Format: functional, HepG2
experimental-setup: tested at 10 uM
Out of some 69,000 compounds screened, about 8,600 (12%) showed an effect of 50% or more. This is one part of a sample in which strong results are shown more often than they occur.
Your answer is read as %, so omit the unit and give the number.

// solved cases for INHIBITION follow
# compound, unit-label, INHIBITION
data = [
    ("CC(CNC(=O)c1cnccn1)Oc1ccc(F)cc1 (configuration not stated)", "%", 69.9),
    ("CCN(C(=O)C1CCC1)C(c1cccnc1)c1ccc2c(c1)CCO2 (configuration not stated)", "%", 66.2),
    ("COc1ccc2c(c1)C(=O)NC1(CC2)CCN(Cc2ccc(F)cc2)C1 (configuration not stated)", "%", 13.621),
    ("Oc1cc(CNCCCN2CCCC2)nc2ccc(F)cc12", "%", 62.8),
    ("CC(CNC(=O)c1c[nH]nn1)Oc1ccc(Cl)cc1 (configuration not stated)", "%", 51.6),
    ("N#Cc1cccc(N2CCOC3(CNCCOC3)C2)n1 (configuration not stated)", "%", 32.7),
    ("O=S(=O)(CCNCc1cc(O)c2cc(F)ccc2n1)N1CCCC1", "%", 58.2),
    ("CC(CNC(=O)c1cnccn1)Oc1cccc(Br)c1 (configuration not stated)", "%", 10),
    ("CCN(C(=O)COC)C(c1cccnc1)c1ccc2c(c1)CCO2 (configuration not stated)", "%", 51.8),
    ("CCN(C(=O)C1CC1)C(c1cccnc1)c1ccc2c(c1)CCO2 (configuration not stated)", "%", 21.8),
]

response.value for CCn1cc(NC(=O)NCC(C)(C)N2CCc3ccccc3C2)cn1 (field: INHIBITION) = -31.8
